Tested On: δ opioid receptors (DOR) (Mus musculus, UniProt P32300)
Construct: expressed in transfected cells
Sequence (P32300 whole entry): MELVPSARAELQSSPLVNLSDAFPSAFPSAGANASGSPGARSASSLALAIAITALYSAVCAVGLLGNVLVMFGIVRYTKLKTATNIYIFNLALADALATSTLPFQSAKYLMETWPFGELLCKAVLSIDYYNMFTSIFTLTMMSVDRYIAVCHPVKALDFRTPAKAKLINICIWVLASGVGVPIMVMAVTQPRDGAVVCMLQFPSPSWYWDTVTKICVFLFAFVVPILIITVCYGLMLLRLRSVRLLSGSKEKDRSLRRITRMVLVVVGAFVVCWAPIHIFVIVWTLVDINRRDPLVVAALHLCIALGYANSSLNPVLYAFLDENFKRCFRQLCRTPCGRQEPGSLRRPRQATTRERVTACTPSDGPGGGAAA
Test Method Notes: Radioligand binding, δ opioid receptor, CHO cells ([3H]cyclo[D-Pen2,D-Pen5]enkephalin)
Measurement Setup: CHO cells stably expressing δ receptors; (n) in brackets; read-out: Ki (nM ± SEM) δ
Where a SMILES comes first, the peptide text is derived from it.
Recorded Endpoint: Ki (nM)
Entry rule: numbers only, all in nM.

Item: C[C@@H]1NC(=O)[C@@H](Cc2c[nH]c3ccccc23)NC(=O)[C@H](Cc2ccccc2)NC(=O)[C@H]2CCCN2C1=O [JVA-3003, cyclo[D-Trp-Ala-D-Pro-Phe]] (HELM PEPTIDE1{A.[dP].F.[dW]}$PEPTIDE1,PEPTIDE1,1:R1-4:R2$$$V2.0) | System: δ opioid receptors (DOR) (Mus musculus, UniProt P32300) | Ki: 8330

Param item: O=C1N[C@@H](Cc2ccccc2)C(=O)N2CCC[C@@H]2C(=O)N[C@@H](Cc2ccccc2)C(=O)N[C@H]1Cc1c[nH]c2ccccc12 [JVA-2801, cyclo[Trp-Phe-D-Pro-Phe]] (HELM PEPTIDE1{F.W.F.[dP]}$PEPTIDE1,PEPTIDE1,1:R1-4:R2$$$V2.0) ; param system: δ opioid receptors (DOR) (Mus musculus, UniProt P32300); output Ki: 4150

// returns Ki for O=C1N[C@H](Cc2c[nH]c3ccccc23)C(=O)N[C@@H](Cc2ccccc2)C(=O)N2CCC[C@@H]2C(=O)N[C@H]1Cc1ccccc1 [JVA-2802, cyclo[D-Trp-Phe-D-Pro-Phe]] (HELM PEPTIDE1{F.[dP].F.[dW]}$PEPTIDE1,PEPTIDE1,1:R1-4:R2$$$V2.0) with δ opioid receptors (DOR) (Mus musculus, UniProt P32300); value = 2910

// compound C[C@@H]1NC(=O)[C@H](Cc2c[nH]c3ccccc23)NC(=O)[C@H](Cc2ccccc2)NC(=O)[C@H]2CCCN2C1=O [JVA-2803, cyclo[Trp-Ala-D-Pro-Phe]] (HELM PEPTIDE1{A.[dP].F.W}$PEPTIDE1,PEPTIDE1,1:R1-4:R2$$$V2.0) , assay δ opioid receptors (DOR) (Mus musculus, UniProt P32300), Ki value: 8680
